Provide the recorded PBM E-score for the entries that follow.
- MEASURED_TARGET: Cin5 (UniProt P40917)
- Sequence: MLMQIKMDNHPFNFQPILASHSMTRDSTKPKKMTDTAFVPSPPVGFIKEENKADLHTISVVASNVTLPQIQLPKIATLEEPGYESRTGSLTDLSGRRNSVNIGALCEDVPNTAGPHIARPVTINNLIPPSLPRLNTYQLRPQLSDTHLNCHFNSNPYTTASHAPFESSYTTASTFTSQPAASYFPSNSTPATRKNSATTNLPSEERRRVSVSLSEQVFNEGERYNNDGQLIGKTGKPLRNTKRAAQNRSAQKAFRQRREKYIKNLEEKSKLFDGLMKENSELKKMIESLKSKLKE
- MEASUREMENT_NOTES: PBM E-score (8-mer binding enrichment) (E-score (-0.5 to 0.5)); higher = stronger / more preferred TF binding
- TEST_CONTEXT: protein concentration: 100 nM; construct: GST-full length
The full ranking holds about 33,000 sequences; the median of “E-score (-0.5 to 0.5)” is about -0.0059, and the highest 2% start at about 0.26. The list comes from a sample in which the highest values are over-represented; it also holds close analogues and randomly drawn sequences.
Lab note: record the figure alone, no unit after it.

Entry CGACGTCC : reported PBM E-score = ?
0.0493

Entry ATATAAAA : reported PBM E-score = ?
0.154

Entry TCTGGGCA : reported PBM E-score = ?
-0.124

Entry CTATTCCA : reported PBM E-score = ?
0.215

Entry CGGACGAA : reported PBM E-score = ?
0.15

Entry ATATAAAC : reported PBM E-score = ?
0.255

Entry CCTTAGGA : reported PBM E-score = ?
0.0118

Entry ATTACCAC : reported PBM E-score = ?
0.151

Entry CTATAAAA : reported PBM E-score = ?
-0.0202

Entry AATGGTAA : reported PBM E-score = ?
0.233

Entry ACGCATAA : reported PBM E-score = ?
0.0967

Entry AAACTCAT : reported PBM E-score = ?
0.205

Entry CTTACCAA : reported PBM E-score = ?
0.286

Entry CTTACCGA : reported PBM E-score = ?
0.0713

Entry CCCCACCC : reported PBM E-score = ?
0.153

Entry CGAGCGCA : reported PBM E-score = ?
0.0288

Entry TACATCCA : reported PBM E-score = ?
0.0256

Entry GCGGATCC : reported PBM E-score = ?
-0.0308

Entry GCTCCCGA : reported PBM E-score = ?
-0.217

Entry ATGTTTTC : reported PBM E-score = ?
0.121

Entry CCCACCCC : reported PBM E-score = ?
0.24

Entry AGTTTGAA : reported PBM E-score = ?
0.0821

Entry GGATGGCA : reported PBM E-score = ?
0.27

Entry GATGCAAC : reported PBM E-score = ?
-0.0342

Entry CTATAAAC : reported PBM E-score = ?
-0.00307

Entry ACAGCCAG : reported PBM E-score = ?
-0.0281

Entry ACGTATCA : reported PBM E-score = ?
0.156

Entry TATGGTAA : reported PBM E-score = ?
0.288

Entry GGCTCCAA : reported PBM E-score = ?
-0.169

Entry ACCCGATA : reported PBM E-score = ?
-0.0171

Entry CTAGCCGC : reported PBM E-score = ?
0.0223

Entry CAATTCCA : reported PBM E-score = ?
0.0576

Entry CTTACCAC : reported PBM E-score = ?
0.0364

Entry GATGGTAA : reported PBM E-score = ?
-0.0229

Entry CCAGCAAG : reported PBM E-score = ?
-0.182

Entry GGATGGCC : reported PBM E-score = ?
-0.296

Entry AAGAAGTG : reported PBM E-score = ?
0.015

Entry GTTACCAA : reported PBM E-score = ?
0.0591

Entry GCACTTTA : reported PBM E-score = ?
-0.0367

Entry GCCCACCC : reported PBM E-score = ?
0.191

Entry TGATAAAA : reported PBM E-score = ?
0.0968

Entry CCGCATAA : reported PBM E-score = ?
0.283

Entry AGGAACAA : reported PBM E-score = ?
-0.0886

Entry GTATAAAA : reported PBM E-score = ?
0.26

Entry TGATGGCA : reported PBM E-score = ?
-0.112

Entry CCCACCCA : reported PBM E-score = ?
0.21

###

- MEASURED_TARGET: Cin5 (UniProt P40917)
- Sequence: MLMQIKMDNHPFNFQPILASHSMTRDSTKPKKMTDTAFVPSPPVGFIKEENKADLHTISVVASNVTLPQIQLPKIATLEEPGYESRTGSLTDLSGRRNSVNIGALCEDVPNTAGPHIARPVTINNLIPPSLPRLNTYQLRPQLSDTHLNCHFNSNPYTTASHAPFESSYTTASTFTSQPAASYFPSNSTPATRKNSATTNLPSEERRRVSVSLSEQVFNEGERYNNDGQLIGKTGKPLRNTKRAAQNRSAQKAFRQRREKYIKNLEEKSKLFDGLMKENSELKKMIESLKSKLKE
- MEASUREMENT_NOTES: PBM E-score (8-mer binding enrichment) (E-score (-0.5 to 0.5)); higher = stronger / more preferred TF binding
- TEST_CONTEXT: protein concentration: 100 nM; construct: GST-full length
The full ranking holds about 33,000 sequences; the median of “E-score (-0.5 to 0.5)” is about -0.0059, and the highest 2% start at about 0.26. The sample holds the highest values, similar sequences and a random draw of the others, so the mix is not that of the screen.
Provide the recorded PBM E-score for the entries that follow.
Lab note: record the figure alone, no unit after it.

Entry CATATATA : reported PBM E-score = ?
0.322

Entry TATATATA : reported PBM E-score = ?
0.369

Entry GCGTCCAC : reported PBM E-score = ?
-0.283

Entry ACGCACTA : reported PBM E-score = ?
0.0242

Entry AATGCGGG : reported PBM E-score = ?
0.273

Entry GCAGCAAC : reported PBM E-score = ?
-0.0419

Entry CGGCCGTC : reported PBM E-score = ?
-0.125

Entry CGAGAGCC : reported PBM E-score = ?
-0.163

Entry AATGATTC : reported PBM E-score = ?
0.161

Entry TATTCGAA : reported PBM E-score = ?
0.0697

Entry AAATCATA : reported PBM E-score = ?
0.198

Entry CTGGGTTA : reported PBM E-score = ?
-0.0908

Entry GCCTCCTA : reported PBM E-score = ?
-0.264

Entry AATGTTGA : reported PBM E-score = ?
-0.014

Entry CCGGTACA : reported PBM E-score = ?
-0.00292

Entry ATTACTAA : reported PBM E-score = ?
0.334

Entry CATATATG : reported PBM E-score = ?
0.114

Entry AACTTTTC : reported PBM E-score = ?
0.0286

Entry GTGTAAGA : reported PBM E-score = ?
0.0309

Entry ATTATTCG : reported PBM E-score = ?
0.288

Entry ACTTCTAT : reported PBM E-score = ?
0.0803

Entry CATGTTGC : reported PBM E-score = ?
-0.00801

Entry TACCGGTA : reported PBM E-score = ?
0.0137

Entry ATTGAGTA : reported PBM E-score = ?
0.262

Entry CTTACTTA : reported PBM E-score = ?
0.25

Entry AATGATAG : reported PBM E-score = ?
0.272

Entry CCTTTAAG : reported PBM E-score = ?
-0.107

Entry CAGCGGAA : reported PBM E-score = ?
0.0943

Entry AGTTCTAC : reported PBM E-score = ?
-0.141

Entry GCGTAACC : reported PBM E-score = ?
0.0286

Entry ATAACGTC : reported PBM E-score = ?
0.0919

Entry AGCCAGTA : reported PBM E-score = ?
-0.0197

Entry GATGATTA : reported PBM E-score = ?
0.23

Entry AGTGAGTG : reported PBM E-score = ?
-0.0867

Entry ACTATTCG : reported PBM E-score = ?
0.224

Entry ACGTAACG : reported PBM E-score = ?
0.214

Entry CCCAGGCC : reported PBM E-score = ?
-0.308

Entry TCCATTCA : reported PBM E-score = ?
0.0889

Entry CATGATTA : reported PBM E-score = ?
0.321

Entry ACACTCAC : reported PBM E-score = ?
0.066

Entry ATACTCCA : reported PBM E-score = ?
0.122

Entry AGGATAGC : reported PBM E-score = ?
-0.064

Entry ACTATTCC : reported PBM E-score = ?
0.0567

Entry GTCACCGA : reported PBM E-score = ?
-0.12

Entry TACATAAA : reported PBM E-score = ?
0.323

Entry CAAAAGTC : reported PBM E-score = ?
-0.0102

Entry GATCGTTA : reported PBM E-score = ?
0.0193

Entry CAATCATA : reported PBM E-score = ?
0.201

Entry CATGATAG : reported PBM E-score = ?
0.0148

Entry ATTACTAC : reported PBM E-score = ?
0.145

Entry CCGCGGAA : reported PBM E-score = ?
0.272

Entry ATAACGAA : reported PBM E-score = ?
0.294

Entry CGGGCGTA : reported PBM E-score = ?
-0.132

Entry ATTACTAG : reported PBM E-score = ?
0.105

Entry CACATAAC : reported PBM E-score = ?
-0.00529

Entry AGGCTAAT : reported PBM E-score = ?
0.0863

Entry CATGATGA : reported PBM E-score = ?
0.173

Entry AGTGAGTA : reported PBM E-score = ?
0.284

Entry ACGTAACC : reported PBM E-score = ?
0.262

Entry ATTTGTTA : reported PBM E-score = ?
0.179

Entry CTTATTCA : reported PBM E-score = ?
0.142

Entry ATCAGTTG : reported PBM E-score = ?
0.209

Entry TAATCATA : reported PBM E-score = ?
0.326

Entry AACCCTTA : reported PBM E-score = ?
0.168

Entry ATTATACC : reported PBM E-score = ?
0.187

Entry ATGTAAGA : reported PBM E-score = ?
0.274

Entry GTAACGTA : reported PBM E-score = ?
0.129

Entry ACTTTGAG : reported PBM E-score = ?
-0.126

Entry AATGCGGC : reported PBM E-score = ?
-0.00913

Entry GACATAAA : reported PBM E-score = ?
0.239

Entry ATTATTCC : reported PBM E-score = ?
0.273

Entry ATAACCAG : reported PBM E-score = ?
0.0194

Entry CGTGAGTA : reported PBM E-score = ?
0.0731

Entry ACGTAAGT : reported PBM E-score = ?
0.25

Entry TCGTAAGA : reported PBM E-score = ?
-0.00999

Entry AATGCGGT : reported PBM E-score = ?
-0.0647

Entry ATACCTAC : reported PBM E-score = ?
0.046

Entry ATAACGAC : reported PBM E-score = ?
0.238

Entry GTTGAGTA : reported PBM E-score = ?
0.0846

Entry ATAACGTA : reported PBM E-score = ?
0.313

Entry GTAACCCA : reported PBM E-score = ?
0.234

Entry AGGTAAGG : reported PBM E-score = ?
0.0286

Entry TCCAGGAA : reported PBM E-score = ?
-0.0393

Entry GAGCAGAA : reported PBM E-score = ?
-0.0414

Entry TAATCGCA : reported PBM E-score = ?
0.294

Entry GAATCGCA : reported PBM E-score = ?
-0.0879

Entry CTTACTAA : reported PBM E-score = ?
0.313

Entry CAATCGCA : reported PBM E-score = ?
0.13

Entry GTTACTAA : reported PBM E-score = ?
0.168

Entry CCGCCCCA : reported PBM E-score = ?
0.109

Entry CCGCGGGA : reported PBM E-score = ?
0.316
